target: DRB1*1301 (DR13) (Homo sapiens, UniProt P01903+P01911, A100E/A169T/K41T/L162R/M171V/P40S/Q125H/Q178H/Q39Y/Q99D/R42S/S66N/T262R/W38E/Y61H); type: binding
We label by threshold. Values of Relative binding affinity of peptide to HLA-DR molecules, DR13 strictly beneath 9 are true (1). Values of 9 and up are false (0).

Look over these answered cases.
[[record]]
sequence_record = "YVYAKEGYEPVLVIQSSEDY"
class_label = "true (1)"

[[record]]
sequence_record = "VLVIQSSEDYVENTEKALNV"
class_label = "false (0)"

[[record]]
sequence_record = "KIYLYENMNINNLTATLGAD"
class_label = "false (0)"


Exam item: Does this sequence meet the criterion Relative binding affinity of peptide to HLA-DR molecules, DR13 < 9? `YGKDALLHEHYVYAKEGYEP`
Marked response: true (1)

Exam item: Does this sequence meet the criterion Relative binding affinity of peptide to HLA-DR molecules, DR13 < 9? `NKALGLPKYTKLITFNVHNR`
Marked response: false (0)
